MIC overview
tested on: Acinetobacter baumannii; assay: Antibacterial activity against OXA-23 producing multidrug-resistant Acinetobacter baumannii clinical isolate 15-4 assessed as inhibition of bacterial growth incubated for 18 to 20 hrs by two fold serial dilution assay; type: functional; details: time 18-20 hrs
assayReadout: MIC (µg/mL)

compound | systemName | assayReadout | unitText | number
Nc1nc(/C(=N/OC(C(=O)O)C2CCCCC2)C(=O)N[C@@H]2C(=O)N3C(C(=O)O)=C(CSCCNC(=O)c4ccc(O)c(O)c4Cl)CS[C@H]23)c(Cl)s1.O=C(O)C(F)(F)F (stereo partly drawn) | Acinetobacter baumannii | MIC | µg/mL | 2
Nc1nc(/C(=N/OC(C(=O)O)C2CCSCC2)C(=O)N[C@@H]2C(=O)N3C(C(=O)O)=C(CSCCNC(=O)c4ccc(O)c(O)c4Cl)CS[C@H]23)cs1.O=C(O)C(F)(F)F (stereo partly drawn) | Acinetobacter baumannii | MIC | µg/mL | 8
Nc1nc(/C(=N/OC(C(=O)O)C2CCC(F)(F)CC2)C(=O)N[C@@H]2C(=O)N3C(C(=O)O)=C(CSCCNC(=O)c4ccc(O)c(O)c4Cl)CS[C@H]23)c(Br)s1.O=C(O)C(F)(F)F (stereo partly drawn) | Acinetobacter baumannii | MIC | µg/mL | 4
